This collection of values is drawn from patent US20150368338A1.

Kd values, listed per item
- STUDY_TARGET: T1, IFN-αC (human, UniProt P01566 24-189)
- T1 construct: Recombinant, HEK293; also called IFN-α10
- TEST_PROTOCOL: ProteOn SPR, cell supernatant;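 also: each binding measurement used just a single antigen concentration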

BINDER: IFWM3377 (antibody, IgG1, V domains shown, mAb; IgG1/kappa said of the parent and of selected mAbs; also called IFWB3112) VH: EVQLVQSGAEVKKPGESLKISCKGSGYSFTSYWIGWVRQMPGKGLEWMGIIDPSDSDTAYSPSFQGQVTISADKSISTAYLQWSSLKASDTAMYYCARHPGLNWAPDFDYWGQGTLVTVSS VL: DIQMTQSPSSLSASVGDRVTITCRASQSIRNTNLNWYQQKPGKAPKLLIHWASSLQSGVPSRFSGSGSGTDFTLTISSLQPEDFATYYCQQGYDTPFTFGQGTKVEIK
Kd: 0.044 nM

BINDER: IFWM3378 (antibody, IgG1, V domains shown, mAb; IgG1/kappa said of the parent and of selected mAbs; also called IFWB3113) VH: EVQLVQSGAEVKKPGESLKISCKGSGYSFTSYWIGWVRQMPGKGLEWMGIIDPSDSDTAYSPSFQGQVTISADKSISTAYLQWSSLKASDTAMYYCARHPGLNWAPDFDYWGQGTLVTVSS VL: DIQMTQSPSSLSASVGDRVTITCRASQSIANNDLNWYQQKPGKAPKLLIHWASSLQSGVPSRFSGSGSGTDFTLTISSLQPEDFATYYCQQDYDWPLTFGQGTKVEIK
Kd: 0.172 nM

BINDER: IFWM3391 (antibody, IgG1, V domains shown, mAb; IgG1/kappa said of the parent and of selected mAbs; also called IFWB3126) VH: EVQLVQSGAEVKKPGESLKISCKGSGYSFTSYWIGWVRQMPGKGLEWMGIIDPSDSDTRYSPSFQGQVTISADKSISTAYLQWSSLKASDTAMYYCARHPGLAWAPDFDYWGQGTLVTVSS VL: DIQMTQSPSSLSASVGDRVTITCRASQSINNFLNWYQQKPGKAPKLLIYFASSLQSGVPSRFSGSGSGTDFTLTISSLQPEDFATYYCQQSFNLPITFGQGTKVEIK
Kd: 0.016 nM
